B1: H2-Kb / Ed8 (parent complex)
chain 1: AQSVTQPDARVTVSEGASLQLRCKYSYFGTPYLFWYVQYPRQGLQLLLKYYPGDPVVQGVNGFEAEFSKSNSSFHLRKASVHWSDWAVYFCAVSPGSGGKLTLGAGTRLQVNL
chain 2: DSGVVQSPRHIIKEKGGRSVLTCIPISGHSNVVWYQQTLGKELKFLIQHYEKVERDKGFLPSRFSVQQFDDYHSEMNMSALELEDSAMYFCASSPRASNYTFGSGTRLLVI
chain 3: not shown
chain 4: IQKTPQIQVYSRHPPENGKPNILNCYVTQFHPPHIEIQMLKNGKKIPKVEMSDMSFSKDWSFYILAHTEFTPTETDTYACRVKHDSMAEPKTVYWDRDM
chain 5: SIINFEKL

# Variants of: B1
# measurement.protocol: % of reporter cells activated (NFAT-GFP), raw; note: test concentration or dose not given here
measured.endpoint: ratio to parent

{"variant.designation": "chain 5 F5I", "ratio to parent": 0.895}
{"variant.designation": "chain 5 I3L", "ratio to parent": 1.3}
{"variant.designation": "chain 5 I2A", "ratio to parent": 1.41}

a: chain 5 N4T
b: chain 5 S1I
c: chain 5 N4R
d: chain 5 N4V
e: chain 5 E6T
Prompt line: Sort the variants on ratio to parent; start with the lowest figure. // respond by listing labels in the order requested
Response line: d, e, a, c, b

a: chain 5 F5W
b: chain 5 N4K
Prompt line: # return whichever of a and b has the smaller ratio to parent Reply briefly: the label of your chosen item.
Response line: b

I: chain 5 L8K
II: chain 5 E6Q
Prompt line: Lab note: check whether I or II shows the higher recorded ratio to parent. Reply briefly: the label of your chosen item.
Response line: I
(I: 1.15, II: 0.777)
